# assaySystem: ATM (Homo sapiens)
# Construct: detecting phosphorylation of Chk2 in a human non-small cell lung cancer cell line NCI-H460 (ATCC company); host or cells: NCI-H460 human non-small cell lung cancer cells
# assayComment: ATM inhibition test (phosphorylation of Chk2 generated by ionizing radiation, AlphaScreen SureFire)
# Format: cell-based
# experimentalContext: phosphorylated Chk2 in NCI-H460 cells, ionizing radiation 8Gy, 1 hour after test compound treatment; read-out: ATM inhibitory activity
IC50 values, listed per item

Worked examples, 3 molecules total:
{"molecule": "CCN1CCN(CC(C)Nc2ccc3c(c2)Sc2cccc(-c4cc(N5CCOCC5)cc(=O)[nH]4)c2S3)CC1 (stereo not drawn)", "assaySystem": "ATM (Homo sapiens)", "IC50": "100 to 500 nM"}
{"molecule": "O=c1cc(N2CCOCC2)cc(-c2cccc3c2Sc2ccc(NCCCc4cccnc4)cc2S3)[nH]1", "assaySystem": "ATM (Homo sapiens)", "IC50": "500 to 2000 nM"}
{"molecule": "COCCNCCC(Nc1ccc2c(c1)Sc1cccc(-c3cc(N4CCOCC4)cc(=O)[nH]3)c1S2)c1cccc(C)n1 (stereo not drawn)", "assaySystem": "ATM (Homo sapiens)", "IC50": "100 to 500 nM"}

**Query** Fill in reported IC50 for this entry: CCOC(=O)c1ccc(CNc2ccc3c(c2)Sc2cccc(-c4cc(N5CCOCC5)cc(=O)[nH]4)c2S3)nc1
**Result** 100 to 500 nM

**Query** Supply measured IC50 of Cc1cnc(C(CCN(C)C)Nc2ccc3c(c2)Sc2cccc(-c4cc(N5CCOCC5)cc(=O)[nH]4)c2S3)cn1 (stereo not drawn) [Example 1-22-2] in your reply.
**Result** < 100 nM

**Query** Look up and report measured IC50 for this entry: CC(CNc1ccc2c(c1)Sc1cccc(-c3cc(N4CCOCC4)cc(=O)[nH]3)c1S2)N1CCOCC1 (single isomer, unassigned) [Example 1-9-2-3]
**Result** 100 to 500 nM

----------
# assaySystem: ATM (Homo sapiens, UniProt Q13315)
# Construct: detecting phosphorylation of Chk2 in a human non-small cell lung cancer cell line NCI-H460 (ATCC company); host or cells: NCI-H460 human non-small cell lung cancer cells
# Sequence (Q13315 whole entry): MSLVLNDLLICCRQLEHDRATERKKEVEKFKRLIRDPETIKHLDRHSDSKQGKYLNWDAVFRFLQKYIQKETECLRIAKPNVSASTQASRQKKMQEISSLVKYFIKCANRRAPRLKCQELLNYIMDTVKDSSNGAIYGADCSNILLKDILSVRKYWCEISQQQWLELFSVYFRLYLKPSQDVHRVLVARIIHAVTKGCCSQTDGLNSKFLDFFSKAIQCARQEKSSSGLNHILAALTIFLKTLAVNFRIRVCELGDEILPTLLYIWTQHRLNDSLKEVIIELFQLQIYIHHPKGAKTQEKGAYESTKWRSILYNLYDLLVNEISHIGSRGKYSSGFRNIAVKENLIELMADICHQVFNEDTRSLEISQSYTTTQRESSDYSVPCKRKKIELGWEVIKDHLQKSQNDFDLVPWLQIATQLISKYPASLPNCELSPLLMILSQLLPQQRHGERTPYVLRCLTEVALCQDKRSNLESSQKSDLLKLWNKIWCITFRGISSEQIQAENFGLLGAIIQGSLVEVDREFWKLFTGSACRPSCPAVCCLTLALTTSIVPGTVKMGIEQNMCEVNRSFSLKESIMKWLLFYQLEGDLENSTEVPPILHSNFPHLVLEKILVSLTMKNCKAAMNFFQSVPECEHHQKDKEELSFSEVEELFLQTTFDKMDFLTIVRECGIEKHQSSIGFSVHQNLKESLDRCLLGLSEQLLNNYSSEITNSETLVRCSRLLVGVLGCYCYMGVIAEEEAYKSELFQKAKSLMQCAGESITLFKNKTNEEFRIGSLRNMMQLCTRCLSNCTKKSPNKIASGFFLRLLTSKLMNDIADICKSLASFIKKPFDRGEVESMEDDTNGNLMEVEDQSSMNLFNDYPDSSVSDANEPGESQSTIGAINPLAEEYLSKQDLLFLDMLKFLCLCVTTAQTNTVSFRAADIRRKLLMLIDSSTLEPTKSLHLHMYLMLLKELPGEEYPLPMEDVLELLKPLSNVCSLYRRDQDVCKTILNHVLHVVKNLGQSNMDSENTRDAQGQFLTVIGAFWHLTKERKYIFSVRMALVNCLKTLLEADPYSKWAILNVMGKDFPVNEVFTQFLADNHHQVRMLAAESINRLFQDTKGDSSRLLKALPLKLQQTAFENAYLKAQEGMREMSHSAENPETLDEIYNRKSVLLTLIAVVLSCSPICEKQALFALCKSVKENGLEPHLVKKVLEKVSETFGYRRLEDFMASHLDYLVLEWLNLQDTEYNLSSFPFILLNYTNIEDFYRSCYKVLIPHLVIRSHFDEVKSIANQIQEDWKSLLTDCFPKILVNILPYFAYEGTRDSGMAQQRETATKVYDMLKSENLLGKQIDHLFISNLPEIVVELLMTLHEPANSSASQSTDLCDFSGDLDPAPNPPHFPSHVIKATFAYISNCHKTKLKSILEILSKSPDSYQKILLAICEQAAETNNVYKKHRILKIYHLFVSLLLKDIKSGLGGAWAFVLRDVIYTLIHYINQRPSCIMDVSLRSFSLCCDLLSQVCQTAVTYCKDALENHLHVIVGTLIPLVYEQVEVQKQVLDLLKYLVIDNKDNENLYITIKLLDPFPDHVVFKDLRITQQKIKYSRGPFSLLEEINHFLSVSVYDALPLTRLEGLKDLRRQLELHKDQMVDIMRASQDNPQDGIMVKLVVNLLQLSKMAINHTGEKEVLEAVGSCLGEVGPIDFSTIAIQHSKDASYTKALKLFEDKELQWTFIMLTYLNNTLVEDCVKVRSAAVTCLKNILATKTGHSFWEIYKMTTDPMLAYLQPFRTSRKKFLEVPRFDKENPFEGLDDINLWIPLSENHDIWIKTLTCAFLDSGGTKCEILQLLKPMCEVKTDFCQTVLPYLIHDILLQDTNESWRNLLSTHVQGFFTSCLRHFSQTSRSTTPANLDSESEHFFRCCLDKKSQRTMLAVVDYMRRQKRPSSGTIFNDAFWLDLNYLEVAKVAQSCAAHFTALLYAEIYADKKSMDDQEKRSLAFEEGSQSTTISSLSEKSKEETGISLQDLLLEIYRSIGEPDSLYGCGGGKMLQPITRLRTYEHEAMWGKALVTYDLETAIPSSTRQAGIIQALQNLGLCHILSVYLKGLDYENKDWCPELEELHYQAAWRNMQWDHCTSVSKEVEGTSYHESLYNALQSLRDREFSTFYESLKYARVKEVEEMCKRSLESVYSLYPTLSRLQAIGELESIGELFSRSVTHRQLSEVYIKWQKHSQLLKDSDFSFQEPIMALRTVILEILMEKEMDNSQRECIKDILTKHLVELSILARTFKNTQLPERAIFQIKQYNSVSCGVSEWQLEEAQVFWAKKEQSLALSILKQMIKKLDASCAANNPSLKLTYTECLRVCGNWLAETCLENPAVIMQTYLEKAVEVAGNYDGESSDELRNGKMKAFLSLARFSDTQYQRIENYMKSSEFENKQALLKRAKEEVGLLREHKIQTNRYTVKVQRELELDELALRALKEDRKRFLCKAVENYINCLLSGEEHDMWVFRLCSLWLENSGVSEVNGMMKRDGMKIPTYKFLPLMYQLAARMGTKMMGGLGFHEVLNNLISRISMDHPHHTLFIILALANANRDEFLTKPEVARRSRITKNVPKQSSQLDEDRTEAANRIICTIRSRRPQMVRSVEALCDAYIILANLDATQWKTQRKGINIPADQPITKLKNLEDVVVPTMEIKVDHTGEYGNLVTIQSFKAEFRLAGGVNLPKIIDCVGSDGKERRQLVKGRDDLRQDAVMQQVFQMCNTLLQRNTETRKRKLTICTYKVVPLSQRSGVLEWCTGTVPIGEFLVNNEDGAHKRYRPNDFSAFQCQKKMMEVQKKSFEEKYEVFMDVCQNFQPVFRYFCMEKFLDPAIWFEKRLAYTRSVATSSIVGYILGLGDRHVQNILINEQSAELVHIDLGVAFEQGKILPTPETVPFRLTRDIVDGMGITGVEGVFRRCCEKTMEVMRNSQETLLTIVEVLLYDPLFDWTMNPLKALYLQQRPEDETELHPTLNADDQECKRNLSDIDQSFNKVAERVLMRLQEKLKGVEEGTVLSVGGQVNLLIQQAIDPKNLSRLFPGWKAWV
# assayComment: ATM inhibition test (phosphorylation of Chk2 generated by ionizing radiation, AlphaScreen SureFire)
# Type: cell-based
# experimentalContext: phosphorylated Chk2 in NCI-H460 cells, ionizing radiation 8Gy, 1 hour after test compound treatment; read-out: ATM inhibitory activity
assayEndpoint: IC50

{"molecule": "CN1CCN(CCNc2ccc3c(c2)Cc2cccc(-c4cc(N5CCOCC5)cc(=O)[nH]4)c2S3)CC1 [Example 3-4-3]", "IC50": "500 to 2000 nM"}
{"molecule": "CCOc1cncc(CNc2ccc3c(c2)Cc2cccc(-c4cc(N5CCOCC5)cc(=O)[nH]4)c2O3)c1 [Example 2-2-48]", "IC50": "< 100 nM"}

**Query** Using ATM (Homo sapiens, UniProt Q13315) as the test system, report measured IC50 of O=c1cc(N2CCOCC2)cc(-c2cccc3c2Oc2ccc(NC4CCC5(CC4)OCCO5)cc2C3)[nH]1 [Example 2-2-62] .
**Result** 100 to 500 nM

----------
# assaySystem: ATM (Homo sapiens, UniProt Q13315)
# Construct: detecting phosphorylation of Chk2 in a human non-small cell lung cancer cell line NCI-H460 (ATCC company); host or cells: NCI-H460 human non-small cell lung cancer cells
# assayComment: ATM inhibition test (phosphorylation of Chk2 generated by ionizing radiation, AlphaScreen SureFire)
# Type: cell-based
# experimentalContext: phosphorylated Chk2 in NCI-H460 cells, ionizing radiation 8Gy, 1 hour after test compound treatment; read-out: ATM inhibitory activity
pIC50: −log10 of the molar value.
The entries below are paired with their reported pIC50.

**Query** Respond only with pIC50 recorded for CC(CN1CCN(c2ccncc2)CC1)Nc1ccc2c(c1)Sc1cccc(-c3cc(N4CCOCC4)cc(=O)[nH]3)c1S2 (stereo not shown)
**Result** 6.30 to 7.00

----------
Overview of recorded IC50 for various molecules
# assaySystem: ATM (Homo sapiens, UniProt Q13315)
# Construct: detecting phosphorylation of Chk2 in a human non-small cell lung cancer cell line NCI-H460 (ATCC company); host or cells: NCI-H460 human non-small cell lung cancer cells
# assayComment: ATM inhibition test (phosphorylation of Chk2 generated by ionizing radiation, AlphaScreen SureFire)
# Assay type: cell-based
# experimentalContext: phosphorylated Chk2 in NCI-H460 cells, ionizing radiation 8Gy, 1 hour after test compound treatment; read-out: ATM inhibitory activity
# Experimental: ATM inhibitory effects of a test compound were measured by detecting phosphorylation of Chk2 in a human non-small cell lung cancer cell line NCI-H460 (ATCC company). The level of phosphorylated Chk2 generated by an ionizing radiation was measured using AlphaScreen SureFire (TGR Biosciences). The cells were seeded by 40000 cells per well in 96-well CellBIND® plates (Corning International Inc.), and incubated at 37° C. overnight in 5% CO2. […]

Here are 3 molecules together with their reported answers.
{"molecule": "Cc1cnc(C(C)Nc2ccc3c(c2)Cc2cccc(-c4cc(N5CCOCC5)cc(=O)[nH]4)c2O3)cn1 (stereo not drawn) [Example 2-14-24]", "assaySystem": "ATM (Homo sapiens, UniProt Q13315)", "IC50": "< 100 nM"}
{"molecule": "O=c1cc(N2CCOCC2)cc(-c2cccc3c2Sc2ccc(NCCN4CC5(COC5)C4)cc2S3)[nH]1", "assaySystem": "ATM (Homo sapiens, UniProt Q13315)", "IC50": "< 100 nM"}
{"molecule": "O=c1cc(N2CCOCC2)cc(-c2cccc3c2Sc2ccc(N[C@@H]4CCCC[C@H]4N4CCOCC4)cc2S3)[nH]1", "assaySystem": "ATM (Homo sapiens, UniProt Q13315)", "IC50": "< 100 nM"}

**Query** Report value: IC50, system: ATM (Homo sapiens, UniProt Q13315), molecule: O=c1cc(N2CCOCC2)cc(-c2cccc3c2Oc2ccc(NCc4cccc(Cl)n4)cc2S3)[nH]1
**Result** < 100 nM

**Query** Provide IC50, system ATM (Homo sapiens, UniProt Q13315), entry O=c1cc(N2CCOCC2)cc(-c2cccc3c2Sc2ccc(NCCN4CCCOCC4)cc2S3)[nH]1
**Result** 100 to 500 nM

**Query** // output IC50; input COCc1cc(CNc2ccc3c(c2)Cc2cccc(-c4cc(N5CCOCC5)cc(=O)[nH]4)c2O3)ccn1 ; system ATM (Homo sapiens, UniProt Q13315)
**Result** < 100 nM

----------
# assaySystem: ATM (Homo sapiens)
# Construct: detecting phosphorylation of Chk2 in a human non-small cell lung cancer cell line NCI-H460 (ATCC company); host or cells: NCI-H460 human non-small cell lung cancer cells
# assayComment: ATM inhibition test (phosphorylation of Chk2 generated by ionizing radiation, AlphaScreen SureFire)
# Format: cell-based
# experimentalContext: phosphorylated Chk2 in NCI-H460 cells, ionizing radiation 8Gy, 1 hour after test compound treatment; read-out: ATM inhibitory activity
pIC50: −log10 of the molar value.
We begin with a simple list: items and their reported pIC50.

{"molecule": "COc1ccc(CNc2ccc3c(c2)Sc2cccc(-c4cc(N5CCOCC5)cc(=O)[nH]4)c2O3)cn1 [Example 4-8-11]", "pIC50": "6.30 to 7.00"}
{"molecule": "O=c1cc(N2CCOCC2)cc(-c2cccc3c2Sc2ccc(NCc4ccsc4)cc2S3)[nH]1 [Example 1-12-1]", "pIC50": "6.30 to 7.00"}
{"molecule": "CN(C)CCN1CCC(Nc2ccc3c(c2)Sc2cccc(-c4cc(N5CCOCC5)cc(=O)[nH]4)c2S3)CC1 [Example 1-29-2]", "pIC50": "6.30 to 7.00"}
{"molecule": "Cc1cccc(C(C)Nc2ccc3c(c2)Sc2cccc(-c4cc(N5CCOCC5)cc(=O)[nH]4)c2S3)n1 (stereo not drawn) [Example 1-12-30]", "pIC50": "> 7.00"}
{"molecule": "Nc1ncc(CNc2ccc3c(c2)Cc2cccc(-c4cc(N5CCOCC5)cc(=O)[nH]4)c2O3)cn1 [Example 2-2-15]", "pIC50": "5.70 to 6.30"}

// next entry
**Query** Identify measured pIC50 corresponding to O=c1cc(N2CCOCC2)cc(-c2cccc3c2Oc2ccc(NC4CCN(CCc5ccc(CO)cc5)CC4)cc2C3)[nH]1 [Example 2-30-17]
**Result** 6.30 to 7.00
